- experimentSummary: JC-1 mitochondrial signal, unstimulated adipocytes – cell-based, JC-1 fluorescence, 3T3-L1 adipocytes, 24 h, 100 nL compound, profiling panel (AID 1168); also: test concentration not given here
- cond: JC-1 mitochondrial fluorescence, higher = more signal, called active from +8 up or from −8 down
assayReadout: z-score
// no unit, no text: just the number

In the examples that follow, each entry is paired with its recorded z-score.
compound	z-score
CO[C@H]1O[C@H](CO)[C@@H](OC(=O)Nc2ccc3c(c2)OCO3)[C@H](OC(=O)Nc2ccccc2-c2ccccc2)[C@H]1OC(=O)Nc1ccccc1-c1ccccc1	2.04
O=C1O[C@@H](c2ccccc2)[C@@H](c2ccccc2)N2[C@@H](c3ccc(OCCO)cc3)[C@]3(C(=O)Nc4ccc(C#CC5(O)CCCCCC5)cc43)[C@@H](C(=O)O)[C@H]12	-0.448
C=C(CCCC)/C(=C/C[C@H](OC(C)=O)c1cccc(OCCO)c1)c1cnc2ccccc2c1	0.0664

[ask] Answer with the recorded z-score of COCCOC(=O)N1C(=O)[C@@]2(c3ccccc31)[C@H](c1ccc(O)cc1)N1[C@H](c3ccccc3)[C@H](c3ccccc3)OC(=O)[C@H]1[C@@H]2C(=O)N1CCCCCCC1 only.
[reply] -1.07

[ask] Please list z-score recorded for the compound COc1ccc(C(O)C2C=CC3C(=O)N(C)C(=O)C3N2N(c2ccccc2)c2ccccc2)cc1 (configuration not stated)
[reply] -1.3

[ask] Give me measured z-score, please, for this compound: CCCC[C@H]1C[C@@H]1[C@@H]1N(C(C)=O)[C@H](c2cccc(OC)c2)CC12CC2
[reply] 0.546

[ask] Give z-score for the following compound: C=CCC(OC(C)=O)[C@@H]1[C@@H](N(Cc2cc3ccccc3o2)C(=O)Cc2ccc(OC)cc2)c2cc(OCCCO)ccc2N1C(=O)c1ccc2ccccc2n1 (some centres not stated)
[reply] -0.106
